# assay_system: RAC-alpha serine/threonine-protein kinase (Homo sapiens, UniProt P31749)
# Sequence (P31749 whole entry): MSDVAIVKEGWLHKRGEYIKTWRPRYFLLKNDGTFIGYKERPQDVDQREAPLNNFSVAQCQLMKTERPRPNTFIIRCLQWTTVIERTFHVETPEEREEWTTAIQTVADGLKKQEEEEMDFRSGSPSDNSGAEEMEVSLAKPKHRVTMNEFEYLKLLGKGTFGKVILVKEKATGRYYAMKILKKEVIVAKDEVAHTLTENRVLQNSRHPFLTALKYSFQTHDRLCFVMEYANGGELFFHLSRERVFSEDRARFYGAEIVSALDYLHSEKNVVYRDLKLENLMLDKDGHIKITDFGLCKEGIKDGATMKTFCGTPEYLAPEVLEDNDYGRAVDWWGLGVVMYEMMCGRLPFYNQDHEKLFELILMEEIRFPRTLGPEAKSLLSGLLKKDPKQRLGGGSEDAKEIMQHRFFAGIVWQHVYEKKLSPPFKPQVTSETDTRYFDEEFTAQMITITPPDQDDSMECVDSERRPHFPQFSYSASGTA
# experimental_context: Sf9
recorded_endpoint: ΔTm (°C)

Check out these entries, answers already filled in.
Nc1ncccc1-c1nc2cc(Br)cnc2n1-c1ccc(CNC(=O)c2ccccc2)cc1 = 8.1
Nc1ncccc1-c1nc2cccnc2n1-c1ccc(CNC(=O)Cc2ccccc2)cc1 = 4.7
CC(=O)Nc1cccc(-c2ccc3nc(-c4cccnc4N)n(-c4ccc(CNC(=O)c5cccc(F)c5)cc4)c3n2)c1 = 13

A = Nc1ncccc1-c1nc2cccnc2n1-c1ccc(CC(=O)Nc2ccccc2)cc1
B = Nc1ncccc1-c1nc2ccc(-c3cccnc3)nc2n1-c1ccc(CNC(=O)c2cccc(F)c2)cc1
So which one has the bigger ΔTm here, A or B ? Mark your answer with the label of the selected entry.
B

* * *

# test_summary: Plasma concentration in CD1 mouse at 100 mg/kg, po after 2 hrs by LC/MS/MS analysis
# Format: ADME, organism-based
# Set-up: dose 100 mg/kg, route oral
recorded_endpoint: concentration at 2 h (µM)
Field format: number, assumed µM, no unit text.

Let me know recorded concentration at 2 h for Nc1ncccc1-c1nc2cc(-c3cccnc3)cnc2n1-c1ccc(CNC(=O)c2ccccc2)cc1 , thanks.
14.1

* * *

# assay_system: RAC-alpha serine/threonine-protein kinase (Homo sapiens)
# test_summary: Inhibition of Akt1 (1 to 480) expressed in Sf9 cells by indirect affinity mass spectrometry assay
recorded_endpoint: IC50 (µM)

Nc1ncccc1-c1nc2cccnc2n1-c1ccc(CC(=O)Nc2ccccc2)cc1 = 14

1 = Nc1ncccc1-c1nc2cc(C3CCCC3)cnc2n1-c1ccc(CNC(=O)c2ccccc2)cc1
2 = COc1ccccc1Cn1c(-c2ccncc2)nc2cc(Br)cnc21
Which has the higher IC50, 1 or 2 ? Field: selected label. Fill in the label of the entry you choose.
1

* * *

# assay_system: RAC-alpha serine/threonine-protein kinase (Homo sapiens, UniProt P31749)
# test_summary: Inhibition of Akt 1 in human A2780 cells assessed as phosphorylation of Akt at T308 after 2 hrs by Western Blot analysis
# Assay type: cell-based
recorded_endpoint: IC50 (nM)

Nc1ncccc1-c1nc2cccnc2n1-c1ccc(CC(=O)Nc2ccccc2)cc1 = 1300
Nc1ncccc1-c1nc2cc(-c3cccnc3)cnc2n1-c1ccc(CNC(=O)c2cccc(F)c2)cc1 = 200
CC(=O)Nc1cccc(-c2ccc3nc(-c4cccnc4N)n(-c4ccc(CNC(=O)c5cccc(F)c5)cc4)c3n2)c1 = 32

I = Nc1ncccc1-c1nc2cc(Br)cnc2n1-c1ccc(CNC(=O)c2ccccc2)cc1
II = Nc1ncccc1-c1nc2ccc(-c3cccnc3)nc2n1-c1ccc(CNC(=O)c2cccc(F)c2)cc1
Identify the entry with the larger IC50. Options: I and II Reply briefly: the label of your chosen item.
II

1 = Nc1ncccc1-c1nc2cc(C3CCCC3)cnc2n1-c1ccc(CNC(=O)c2ccccc2)cc1
2 = Nc1ncccc1-c1nc2ccc(-c3cccnc3)nc2n1-c1ccc(CC(=O)Nc2ccccc2)cc1
# returns the entry with the larger IC50; inputs 1 and 2 Label of pick, please.
1
(1: 210 nM, 2: 55 nM)

a = Nc1ncccc1-c1nc2ccc(-c3ccccc3)nc2n1-c1ccc(CNC(=O)c2ccccc2)cc1
b = Nc1ncccc1-c1nc2cc(-c3cccnc3)cnc2n1-c1ccc(CNC(=O)c2ccccc2)cc1
c = CC(=O)Nc1cccc(-c2ccc3nc(-c4cccnc4N)n(-c4ccc(CC(=O)Nc5cccc(F)c5)cc4)c3n2)c1
Order the records so the highest IC50 appears first and the lowest last. Present the labels in the sequence the task asks for.
a, b, c
(a: 180 nM, b: 62 nM, c: 15 nM)

* * *

# assay_system: RAC-alpha serine/threonine-protein kinase (Homo sapiens, UniProt P31749)
# experimental_context: Sf9
recorded_endpoint: ΔTm (°C)

Nc1ncccc1-c1nc2cc(-c3cccnc3)cnc2n1-c1ccc(CNC(=O)c2ccccc2)cc1 = 9.2
CC(=O)Nc1cccc(-c2ccc3nc(-c4cccnc4N)n(-c4ccc(CC(=O)Nc5cccc(F)c5)cc4)c3n2)c1 = 11.1
CC(=O)Nc1cccc(-c2ccc3nc(-c4cccnc4N)n(-c4ccc(CNC(=O)c5ccccc5)cc4)c3n2)c1 = 12.8
Nc1ncccc1-c1nc2ccc(-c3cccnc3)nc2n1-c1ccc(CNC(=O)c2ccccc2)cc1 = 9.7

* * *

# assay_system: RAC-alpha serine/threonine-protein kinase (Homo sapiens, UniProt P31749)
# test_summary: Inhibition of Akt1 in human A2780 cells assessed as phosphorylation of Akt at S473 after 2 hrs by Western Blot analysis
# Assay type: cell-based
pIC50: −log10 of the molar value.
recorded_endpoint: pIC50

a = Nc1ncccc1-c1nc2cccnc2n1-c1ccc(CC(=O)Nc2ccccc2)cc1
b = CC(=O)Nc1cccc(-c2ccc3nc(-c4cccnc4N)n(-c4ccc(CC(=O)Nc5cccc(F)c5)cc4)c3n2)c1
Hi team, can someone confirm which has the larger pIC50: a or b ? Thanks. In your reply, give the label of the chosen option.
b

* * *

# test_summary: Drug level in human AN3CA cells xenografted NCr mouse tumor at 250 mg/kg, po after 2 hrs
# Assay type: ADME, organism-based, Neoplasm, AN3-CA
# Set-up: dose 250 mg/kg, route oral
# experimental_context: read-out: Drug uptake
recorded_endpoint: concentration at 2 h (nM)
Report the figure in nM without appending any unit label.

Return concentration at 2 h (reported value) for this molecule: CC(=O)Nc1cccc(-c2ccc3nc(-c4cccnc4N)n(-c4ccc(CNC(=O)c5cccc(F)c5)cc4)c3n2)c1
1200

* * *

# pIC50 per entry for RAC-beta serine/threonine-protein kinase (Homo sapiens)
pIC50: −log10 of the molar value.
recorded_endpoint: pIC50

Examples with answers:
Nc1ncccc1-c1nc2cc(-c3cccnc3)cnc2n1-c1ccc(CNC(=O)c2ccccc2)cc1 = 7.52
CC(=O)Nc1cccc(-c2ccc3nc(-c4cccnc4N)n(-c4ccc(CNC(=O)c5ccccc5)cc4)c3n2)c1 = 7.33
Nc1ncccc1-c1nc2ccc(-c3cccnc3)nc2n1-c1ccc(CC(=O)Nc2ccccc2)cc1 = 7.60
Nc1ncccc1-c1nc2cc(-c3cccnc3)cnc2n1-c1ccc(CNC(=O)c2cccc(F)c2)cc1 = 7.57

I = Nc1ncccc1-c1nc2ccc(-c3cccnc3)nc2n1-c1ccc(CNC(=O)c2cccc(F)c2)cc1
II = Nc1ncccc1-c1nc2cc(C3CCCC3)cnc2n1-c1ccc(CNC(=O)c2ccccc2)cc1
III = Nc1ncccc1-c1nc2ccc(-c3cccnc3)nc2n1-c1ccc(CNC(=O)c2ccccc2)cc1
IV = CC(=O)Nc1cccc(-c2ccc3nc(-c4cccnc4N)n(-c4ccc(CNC(=O)c5cccc(F)c5)cc4)c3n2)c1
Please list these in order of increasing pIC50. Thank you! Returns: the labels arranged in the requested order.
II, I, III, IV

* * *

# assay_system: RAC-alpha serine/threonine-protein kinase (Homo sapiens, UniProt P31749)
# test_summary: Inhibition of Akt1 in human AN3CA cells assessed as phosphorylation PRAS40 at T246 after 2 hrs by Western Blot analysis
# Type: cell-based, AN3-CA
pIC50: −log10 of the molar value.
recorded_endpoint: pIC50

CC(=O)Nc1cccc(-c2ccc3nc(-c4cccnc4N)n(-c4ccc(CC(=O)Nc5cccc(F)c5)cc4)c3n2)c1 = 5.82

1 = Nc1ncccc1-c1nc2cc(-c3cccnc3)cnc2n1-c1ccc(CNC(=O)c2ccccc2)cc1
2 = CC(=O)Nc1cccc(-c2ccc3nc(-c4cccnc4N)n(-c4ccc(CNC(=O)c5cccc(F)c5)cc4)c3n2)c1
Quick check, higher pIC50 between 1 and 2 ? Please reply using the label of the selected record.
2
(2: 6.66, 1: 5.82)

* * *

Entries and their IC50 values follow.
# assay_system: RAC-alpha serine/threonine-protein kinase (Homo sapiens, UniProt P31749)
# test_summary: Inhibition of Akt1 in human AN3CA cells assessed as phosphorylation PRAS40 at T246 after 2 hrs by Western Blot analysis
# Format: cell-based, AN3-CA

Nc1ncccc1-c1nc2cc(Br)cnc2n1-c1ccc(CNC(=O)c2ccccc2)cc1 = > 10 µM
Nc1ncccc1-c1nc2cc(C3CCCC3)cnc2n1-c1ccc(CNC(=O)c2ccccc2)cc1 = > 10 µM

Field: next compound
Dear colleague, please send me the reported IC50 for Nc1ncccc1-c1nc2ccc(-c3ccccc3)nc2n1-c1ccc(CNC(=O)c2ccccc2)cc1 when you can.
> 10 µM

* * *

IC50: recorded values
# assay_system: RAC-alpha serine/threonine-protein kinase (Homo sapiens)
# test_summary: Inhibition of Akt 1 in human AN3CA cells assessed as phosphorylation of Akt at T308 after 2 hrs by Western Blot analysis
# Format: cell-based, AN3-CA

Nc1ncccc1-c1nc2ccc(-c3ccccc3)nc2n1-c1ccc(CNC(=O)c2ccccc2)cc1 = > 10 µM

Name the recorded IC50 of the item Nc1ncccc1-c1nc2cc(Br)cnc2n1-c1ccc(CNC(=O)c2ccccc2)cc1 in your answer.
> 10 µM

Please give the documented IC50 of Nc1ncccc1-c1nc2cccnc2n1-c1ccc(CC(=O)Nc2ccccc2)cc1
> 10 µM

* * *

# assay_system: RAC-alpha serine/threonine-protein kinase (Homo sapiens, UniProt P31749)
# test_summary: Inhibition of Akt1 (1 to 480) expressed in Sf9 cells using biotin-GRPRTSSFAEG as substrate after 20 mins by Alpha-screen assay
pIC50: −log10 of the molar value.
recorded_endpoint: pIC50

Nc1ncccc1-c1nc2cc(-c3ccccc3)cnc2n1-c1ccc(CNC(=O)c2ccccc2)cc1 = 7.48
Nc1ncccc1-c1nc2cccnc2n1-c1ccc(NC(=O)c2ccccc2)cc1 = 7.85
CC(=O)Nc1cccc(-c2ccc3nc(-c4cccnc4N)n(-c4ccc(CC(=O)Nc5cccc(F)c5)cc4)c3n2)c1 = 7.77
CC(=O)Nc1cccc(-c2ccc3nc(-c4cccnc4N)n(-c4ccc(CNC(=O)c5ccccc5)cc4)c3n2)c1 = 7.82
CC(C)(C)c1ccc(-n2c(-c3cccnc3)nc3cccnc32)cc1 = 3.73
Nc1ncccc1-c1nc2cc(-c3cccnc3)cnc2n1-c1ccc(CNC(=O)c2cccc(F)c2)cc1 = 8.28
Nc1ncccc1-c1nc2cccnc2n1-c1ccc(CNC(=O)c2ccccc2)cc1 = 7.64
Nc1ncccc1-c1nc2cccnc2n1-c1ccc(CNCc2ccccc2)cc1 = 6.59
CC(=O)NCc1ccc(-n2c(-c3cccnc3N)nc3cccnc32)cc1 = 6.09
Nc1ncccc1-c1nc2cccnc2n1-c1cccc(CNC(=O)c2ccccc2)c1 = 4.89
